assay: Solubility measurement in methyl ethyl ketone (MEK); format: physicochemical; settings: concentration when the solute completely dissolved
Counter-ions that a name gives are not always drawn.
For each of the compounds below, state its Solubility (MEK).
Numbers only, in wt %.

| compound | Solubility (MEK) (wt %) |
| --- | --- |
| CCCN1/C(=C/C=C/C=C/C=C/C=C/C2=[N+](CCC)c3ccc4ccccc4c3C2(Cc2ccccc2)Cc2ccccc2)C(Cc2ccccc2)(Cc2ccccc2)c2c1ccc1ccccc21 [Example 1-9, Tetrafluoroborate Salt of Compound No. 6] | 1.36 |

Could you tell me Solubility (MEK) for each of these compounds? They are listed below.
1. O=S(=O)(c1ccc2c(c1)[S][Cu-]1([S]2)[S]c2ccc(S(=O)(=O)N3CCOCC3)cc2[S]1)N1CCOCC1 [Example 1-5, Quencher (1-1) Salt of Compound No. 3]
2. CN1/C(=C/C=C/C=C/C=C/C=C/C2=[N+](C)c3c(c4ccccc4c4ccccc34)C2(C)C)C(C)(C)c2c1c1ccccc1c1ccccc21 [1-4, reference compound]

RESULT:
[0.39, 0.28]

* * *

Assay: Decomposition point measurement (TG/DTA)
Assay type: physicochemical
Conditions: temperature at which the mass started to decrease, differential thermal analysis, temperature-rise rate 10° C./minute
Experimental: The UV-Visible absorption spectra measurement was conducted by preparing a chloroform solution of each compound to be tested, and employing a UV-Vis-NIR spectrophotometer (“V-570”; product from JASCO Corporation). […]
Consider the following compounds; for each one, report its Decomposition Point.
One number for each entry, in °C.

Here is how some compounds turned out for Decomposition Point.
| compound | measure | unit.abbreviation | observed.measurement |
| --- | --- | --- | --- |
| CN1/C(=C/C=C/C=C/C=C/C=C/C2=[N+](C)c3ccc4ccccc4c3C2(C)Cc2ccccc2)C(C)(Cc2ccccc2)c2c1ccc1ccccc21 (stereo not shown) [Example 1-4] | Decomposition Point | °C | 255.8 |
| CN1/C(=C/C=C/C=C/C=C/C=C/C2=[N+](C)c3ccccc3C2(Cc2ccccc2)Cc2ccccc2)C(Cc2ccccc2)(Cc2ccccc2)c2ccccc21 [Example 1-2] | Decomposition Point | °C | 248.6 |
| CN1/C(=C/C=C/C=C/C=C/C=C/C2=[N+](C)c3ccc4ccccc4c3C23CCCCC3)C2(CCCCC2)c2c1ccc1ccccc21 | Decomposition Point | °C | 280.7 |

Turning to the following compound.
QUERY: Return Decomposition Point (reported value) for this compound: CN1/C(=C/C=C/C=C/C=C/C=C/C2=[N+](C)c3ccc4ccccc4c3C2(Cc2ccccc2)Cc2ccccc2)C(Cc2ccccc2)(Cc2ccccc2)c2c1ccc1ccccc21 [Example 1-7]
RESULT: 266.5

* * *

Please go through the items and note down their Decomposition Point.
assay: Decomposition point measurement (TG/DTA); format: physicochemical; conditions: temperature at which the mass started to decrease, differential thermal analysis, temperature-rise rate 10° C./minute
Counter-ions that a name gives are not always drawn.
One number for each entry, in °C.

For orientation, consider the following solved cases.
| compound | observed.measurement |
| --- | --- |
| CN1/C(=C/C=C/C=C/C=C/C=C/C2=[N+](C)c3ccc4ccccc4c3C2(Cc2ccccc2)Cc2ccccc2)C(Cc2ccccc2)(Cc2ccccc2)c2c1ccc1ccccc21 [Example 1-6, Tetrafluoroborate Salt of Compound No. 4] | 192.6 |
| CN1/C(=C/C=C/C=C/C=C/C=C/C2=[N+](C)c3c(c4ccccc4c4ccccc34)C2(C)C)C(C)(C)c2c1c1ccccc1c1ccccc21 [Example 1-12] | 291.5 |
| CN1/C(=C/C=C/C=C/C=C/C=C/C2=[N+](C)c3c(c4ccccc4c4ccccc34)C2(C)C)C(C)(C)c2c1c1ccccc1c1ccccc21 [1-4, reference compound] | 261.3 |
| CCCN1/C(=C/C=C/C=C/C=C/C=C/C2=[N+](CCC)c3ccc4ccccc4c3C2(Cc2ccccc2)Cc2ccccc2)C(Cc2ccccc2)(Cc2ccccc2)c2c1ccc1ccccc21 [Example 1-9, Tetrafluoroborate Salt of Compound No. 6] | 193.8 |

Moving on to the next compound.
QUERY: Give reported Decomposition Point value for O=S(=O)(c1ccc2c(c1)[S][Cu-]1([S]2)[S]c2ccc(S(=O)(=O)N3CCOCC3)cc2[S]1)N1CCOCC1 [1-3, reference compound]
RESULT: 198.7
